- RUN_DESCRIPTION: amyloid nucleation score (Sup35N fusion, yeast selection) (log enrichment); library NNK3; higher = more nucleation; inactive = no reads after selection;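 also: zero at mode of non-aggregating sequences after 7 days selection at 30°C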
QUANTITY_MEASURED: amyloid nucleation score

[
  {
    "SUBSTANCE": "TSGWEFRRFPNFQLLILSCF",
    "amyloid nucleation score": "inactive"
  },
  {
    "SUBSTANCE": "QFLKGDCRYLDPGMDLDRG",
    "amyloid nucleation score": "inactive"
  },
  {
    "SUBSTANCE": "GASMLGAIKGYSTSERISLD",
    "amyloid nucleation score": 0.175
  },
  {
    "SUBSTANCE": "TLLIRCYPYIMLYRFAASTD",
    "amyloid nucleation score": "inactive"
  }
]

Enquiry: Return amyloid nucleation score for the following substance: "HFVLCDHYVR"
Return: inactive

Enquiry: Indicate the recorded amyloid nucleation score value for this substance: "RWRFRRWVS"
Return: inactive

Enquiry: Find the measured amyloid nucleation score of "WMFGQSIAALFSWGTVCGLV" and report it.
Return: inactive

Enquiry: Return amyloid nucleation score (reported value) for this substance: "YDLVSNG"
Return: inactive

Enquiry: Tell us which amyloid nucleation score value is on record for "ASNYDYVYMPTWDKDRFSRY"
Return: inactive

Enquiry: Quote amyloid nucleation score reported for "VWIWWEDSGITCLGYMVLDF" please.
Return: inactive

Enquiry: Supply amyloid nucleation score value. Item: "HESKTMRKEEIMYTRWYKVL"
Return: inactive

Enquiry: Provide amyloid nucleation score value for the following substance: "YVILGQDDHEKT"
Return: inactive

Enquiry: Look up and state reported amyloid nucleation score for "VDVCITFCWIARLMV"
Return: inactive

Enquiry: Return amyloid nucleation score (reported value) for this substance: "CLRRVPLQRSSFLSVNLKLM"
Return: inactive

====

- RUN_DESCRIPTION: amyloid nucleation score (Sup35N fusion, yeast selection) (log enrichment); library NNK3; higher = more nucleation; inactive = no reads after selection
QUANTITY_MEASURED: amyloid nucleation score

Example cases with answers are listed next.
[
  {
    "SUBSTANCE": "EGYACIVYCLGPINLLMWCT",
    "RESULT": "inactive"
  },
  {
    "SUBSTANCE": "VKNFLGY",
    "RESULT": "inactive"
  },
  {
    "SUBSTANCE": "ILWFMDGMIRSRGVPLGDGC",
    "RESULT": "inactive"
  },
  {
    "SUBSTANCE": "EDLVISNIFGWFGCLGLVYT",
    "RESULT": "inactive"
  },
  {
    "SUBSTANCE": "SLVSYINGKVKNVPCKSCCY",
    "RESULT": "inactive"
  }
]

Enquiry: Look up and state reported amyloid nucleation score for "TRSRFWRRTKLPLVSVRYHN"
Return: inactive

Enquiry: State, in one line, measured amyloid nucleation score of "ASSLMQ"
Return: inactive

Enquiry: Tell me measured amyloid nucleation score for "DNISHLAFCFNMALWYSNQS" please.
Return: 1.23

Enquiry: Please look at this substance and report its amyloid nucleation score: "RLNYWMTDDGCGRSCDTRVE"
Return: inactive

Enquiry: Please report amyloid nucleation score for the following substance: "KYFTLDMNRKSISYL"
Return: inactive

Enquiry: Look up and report measured amyloid nucleation score for this entry: "GTGMCCLIVSLVFLPLCDIA"
Return: inactive

Enquiry: Item "CIDQTTLKHTLDNCLIFF" : provide amyloid nucleation score
Return: inactive

Enquiry: Recall and state the measured amyloid nucleation score for "RNIRYLTLYQVTYLGRRRT" .
Return: 2.25
